system.under.test: Short transient receptor potential channel 4 (Mus musculus) (UniProt Q9QUQ5)
Sequence (Q9QUQ5 whole entry, looked up): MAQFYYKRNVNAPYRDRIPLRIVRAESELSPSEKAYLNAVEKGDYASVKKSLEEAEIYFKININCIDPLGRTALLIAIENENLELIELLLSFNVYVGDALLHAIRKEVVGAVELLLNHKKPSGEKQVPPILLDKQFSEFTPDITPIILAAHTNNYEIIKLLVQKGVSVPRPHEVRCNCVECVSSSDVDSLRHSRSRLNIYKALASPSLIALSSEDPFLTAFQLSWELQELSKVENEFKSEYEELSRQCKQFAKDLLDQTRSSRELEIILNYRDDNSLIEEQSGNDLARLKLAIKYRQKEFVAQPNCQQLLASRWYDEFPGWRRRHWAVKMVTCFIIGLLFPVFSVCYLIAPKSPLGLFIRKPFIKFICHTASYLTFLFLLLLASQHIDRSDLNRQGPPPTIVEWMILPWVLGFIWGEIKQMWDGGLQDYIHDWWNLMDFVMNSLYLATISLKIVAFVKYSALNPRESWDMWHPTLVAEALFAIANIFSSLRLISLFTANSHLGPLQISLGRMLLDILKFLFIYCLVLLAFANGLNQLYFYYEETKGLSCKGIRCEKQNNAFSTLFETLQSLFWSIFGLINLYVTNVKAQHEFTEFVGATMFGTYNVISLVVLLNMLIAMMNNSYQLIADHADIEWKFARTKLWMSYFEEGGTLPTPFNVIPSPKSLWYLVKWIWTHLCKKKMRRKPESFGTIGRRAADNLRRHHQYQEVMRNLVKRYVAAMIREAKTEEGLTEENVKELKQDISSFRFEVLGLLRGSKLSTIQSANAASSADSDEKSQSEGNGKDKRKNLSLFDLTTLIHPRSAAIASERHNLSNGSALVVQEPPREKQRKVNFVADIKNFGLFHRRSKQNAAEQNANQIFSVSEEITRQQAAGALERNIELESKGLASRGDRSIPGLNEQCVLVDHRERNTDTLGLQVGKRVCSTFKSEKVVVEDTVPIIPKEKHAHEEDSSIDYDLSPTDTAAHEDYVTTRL
test: blockers of DAMGO-evoked TRPC4 calcium flux – cell-based, second round, Fluo4, HEK293 TRPC4beta/mu-opioid, 1 µM, confirmation (AID 2637)
protocol.conditions: at 1 µM
Calls of active or inactive are those of the source.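 Rule for the calls: active = calcium signal ratio cut to more than 3 SD under the fully stimulated control mean yet still positive, in both repeats and the primary screen; inactive = the rest.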
Possible outcomes: y = active, n = inactive

[
  {
    "compound": "CCCNc1nc2ccccc2n2c(C)nnc12",
    "answer.label": "y"
  },
  {
    "compound": "CCN1CCCC1CNC(=O)c1cc2c(OC)cccc2[nH]1 (stereo unspecified)",
    "answer.label": "n"
  },
  {
    "compound": "CN(C)c1ccc(C(CNC(=O)Cc2cccc3ccccc23)N(C)C)cc1 (stereo unspecified)",
    "answer.label": "n"
  },
  {
    "compound": "Cc1c(CCOC(=O)c2ccc([N+](=O)[O-])cc2)sc[n+]1CC(=O)c1ccccc1",
    "answer.label": "n"
  },
  {
    "compound": "CC(C)Cc1cc(CN2CCCC(CO)(Cc3cccc(Cl)c3)C2)[nH]n1 (stereo unspecified)",
    "answer.label": "n"
  },
  {
    "compound": "N=c1c2c(n(Cc3ccc(Br)cc3)c3c1CCC3)CCCC2",
    "answer.label": "n"
  },
  {
    "compound": "COc1ccccc1CNCc1cc(Br)ccc1OC",
    "answer.label": "n"
  },
  {
    "compound": "CN(C)c1ccc(NC(=O)CN2C3CCCC2CC(NC(=O)c2ccccc2)C3)cc1 (stereo unspecified)",
    "answer.label": "n"
  },
  {
    "compound": "CCOC(=O)c1oc2ccccc2c1CN1CCCCC1",
    "answer.label": "n"
  },
  {
    "compound": "O=c1[nH][nH]c(-c2ccccc2)c1C=Nc1ccc(F)cc1F",
    "answer.label": "n"
  },
  {
    "compound": "Cc1c(N2C(=O)/C(=C/c3ccccc3)SC2=S)c(=O)n(-c2ccccc2)n1C",
    "answer.label": "n"
  }
]
